system: GT1a replicon encoding NS5A mutation Q30R; experiment: Transient replication assay, GT1a replicon with NS5A mutation Q30R; format: cell-based; conditions: Hepatitis C virus, read-out: EC50 (nM) 1a Q30R
Returns: string. Value is Fulfilled if measured EC50 is below 1 nM, and Not fulfilled if it is greater than or equal to it.

COC(=O)N[C@H](C(=O)N1C[C@]2(CCCOC2)C[C@H]1c1ncc(-c2ccc(-c3ccc4c(ccc5nc([C@@H]6CCCN6C(=O)[C@@H](NC(=O)OC)C(C)C)[nH]c54)c3)cc2)[nH]1)C(C)C [drawing 233]: Fulfilled
COC(=O)N[C@H](C(=O)N1C[C@]2(CCCCO2)C[C@H]1c1ncc(-c2ccc(-c3ccc4c(ccc5nc([C@@H]6CCCN6C(=O)[C@@H](NC(=O)OC)C(C)C)[nH]c54)c3)cc2)[nH]1)C(C)C: Fulfilled
COC(=O)N[C@H](C(=O)N1C[C@@]2(CCCCO2)C[C@H]1c1ncc(-c2ccc(-c3ccc4c(ccc5nc([C@@H]6CCCN6C(=O)[C@@H](NC(=O)OC)C(C)C)[nH]c54)c3)cc2)[nH]1)C(C)C: Not fulfilled
COC(=O)N[C@H](C(=O)N1C[C@@]2(CCCOC2)C[C@H]1c1ncc(-c2ccc(-c3ccc4c(ccc5nc([C@@H]6CCCN6C(=O)[C@@H](NC(=O)OC)C(C)C)[nH]c54)c3)cc2)[nH]1)C(C)C [drawing 235]: Fulfilled
